Reference source for all entries: paper doi:10.1101/2024.08.25.609621

EXPERIMENTAL_SYSTEM: SARS-CoV-2 NSP3 macrodomain (Mac1) (Severe acute respiratory syndrome coronavirus 2)
METHOD_NOTES: biochemical
Type: binding
CONDITION: read-out: HTRF IC50
Entries and their IC50
Report as: number unit

Here's what some known entries look like.
OCCC(CO)Nc1ncnc2[nH]ccc12 (stereo not drawn) [AVI-3734]
52 µM
CC(CNC(=O)c1ccc2c(c1)CCC(=O)N2)C(=O)O (stereo not drawn) [AVI-328]
220 µM
OCC(Cc1ccccc1)Nc1ncnc2[nH]ccc12 (stereo not drawn) [AVI-313]
130 µM
CC(C)(O)[C@@H]1CCCN1c1ncnc2[nH]ccc12 [AVI-1445]
110 µM
O=C(O)C(F)(F)F.OC1([C@H]2CCCN2c2ncnc3[nH]ccc23)Cc2ccccc2C1 [AVI-3731]
3.7 µM

Now consider a different compound.
# query: IC50 of entry CC(O)C1CCCN1c1ncnc2[nH]ccc12 (stereo not drawn) [AVI-4062]
55 µM
